Reported inhibition at 0.3 µM values follow for various compounds
assayed.system: human SGLT1 (Homo sapiens)
Construct: expressed in transfected cells; host or cells: CHO-K1
Sequence (P13866 whole entry): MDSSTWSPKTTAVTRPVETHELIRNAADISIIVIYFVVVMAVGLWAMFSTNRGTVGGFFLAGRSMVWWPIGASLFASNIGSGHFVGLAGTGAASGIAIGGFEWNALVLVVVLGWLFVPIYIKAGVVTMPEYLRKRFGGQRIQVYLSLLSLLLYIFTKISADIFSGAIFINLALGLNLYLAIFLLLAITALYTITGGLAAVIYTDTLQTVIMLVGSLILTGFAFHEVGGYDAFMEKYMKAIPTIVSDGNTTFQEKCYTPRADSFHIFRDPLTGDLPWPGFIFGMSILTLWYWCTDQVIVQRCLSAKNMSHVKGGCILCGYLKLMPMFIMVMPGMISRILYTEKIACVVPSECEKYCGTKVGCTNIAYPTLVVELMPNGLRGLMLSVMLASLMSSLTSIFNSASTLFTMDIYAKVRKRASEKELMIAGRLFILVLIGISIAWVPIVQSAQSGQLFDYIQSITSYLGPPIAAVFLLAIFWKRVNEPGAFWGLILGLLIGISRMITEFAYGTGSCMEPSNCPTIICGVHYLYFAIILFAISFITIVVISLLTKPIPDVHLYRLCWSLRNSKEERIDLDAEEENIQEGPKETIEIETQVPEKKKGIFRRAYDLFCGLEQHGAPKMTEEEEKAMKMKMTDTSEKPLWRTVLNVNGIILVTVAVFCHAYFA
test: SGLT1 assay: Na-dependent 14C-AMG uptake in CHO-K1 cells stably expressing human SGLT1
Format: cell-based
condition.info: at 0.3 μM
Please give a number only; it is taken to be in %.

Consider the following illustrative entries.
structure | assayed.system | unit.abbrev | val
COc1cc(C#N)c(Cc2ccc3c(c2)CC3)cc1[C@@H]1O[C@H](CO)[C@@H](O)[C@H](O)[C@H]1O | human SGLT1 (Homo sapiens) | % | 25
[2H]C1([2H])Cc2ccc(Cc3cc([C@@H]4O[C@H](CO)[C@@H](O)[C@H](O)[C@H]4O)c(F)cc3C)cc21 | human SGLT1 (Homo sapiens) | % | 85

// below: inhibition at 0.3 µM requested for another compound
Tell me inhibition at 0.3 µM reported for "COc1cc(F)c(Cc2ccc3c(c2)CC3)cc1[C@@H]1O[C@H](CO)[C@@H](O)[C@H](O)[C@H]1O"
24
